biological target: UniProt Q13535; experiment: ATR Inhibition Assay (radioactive-phosphate incorporation); format: biochemical; conditions: read-out: ATR Ki
Sequence (Q13535 whole entry): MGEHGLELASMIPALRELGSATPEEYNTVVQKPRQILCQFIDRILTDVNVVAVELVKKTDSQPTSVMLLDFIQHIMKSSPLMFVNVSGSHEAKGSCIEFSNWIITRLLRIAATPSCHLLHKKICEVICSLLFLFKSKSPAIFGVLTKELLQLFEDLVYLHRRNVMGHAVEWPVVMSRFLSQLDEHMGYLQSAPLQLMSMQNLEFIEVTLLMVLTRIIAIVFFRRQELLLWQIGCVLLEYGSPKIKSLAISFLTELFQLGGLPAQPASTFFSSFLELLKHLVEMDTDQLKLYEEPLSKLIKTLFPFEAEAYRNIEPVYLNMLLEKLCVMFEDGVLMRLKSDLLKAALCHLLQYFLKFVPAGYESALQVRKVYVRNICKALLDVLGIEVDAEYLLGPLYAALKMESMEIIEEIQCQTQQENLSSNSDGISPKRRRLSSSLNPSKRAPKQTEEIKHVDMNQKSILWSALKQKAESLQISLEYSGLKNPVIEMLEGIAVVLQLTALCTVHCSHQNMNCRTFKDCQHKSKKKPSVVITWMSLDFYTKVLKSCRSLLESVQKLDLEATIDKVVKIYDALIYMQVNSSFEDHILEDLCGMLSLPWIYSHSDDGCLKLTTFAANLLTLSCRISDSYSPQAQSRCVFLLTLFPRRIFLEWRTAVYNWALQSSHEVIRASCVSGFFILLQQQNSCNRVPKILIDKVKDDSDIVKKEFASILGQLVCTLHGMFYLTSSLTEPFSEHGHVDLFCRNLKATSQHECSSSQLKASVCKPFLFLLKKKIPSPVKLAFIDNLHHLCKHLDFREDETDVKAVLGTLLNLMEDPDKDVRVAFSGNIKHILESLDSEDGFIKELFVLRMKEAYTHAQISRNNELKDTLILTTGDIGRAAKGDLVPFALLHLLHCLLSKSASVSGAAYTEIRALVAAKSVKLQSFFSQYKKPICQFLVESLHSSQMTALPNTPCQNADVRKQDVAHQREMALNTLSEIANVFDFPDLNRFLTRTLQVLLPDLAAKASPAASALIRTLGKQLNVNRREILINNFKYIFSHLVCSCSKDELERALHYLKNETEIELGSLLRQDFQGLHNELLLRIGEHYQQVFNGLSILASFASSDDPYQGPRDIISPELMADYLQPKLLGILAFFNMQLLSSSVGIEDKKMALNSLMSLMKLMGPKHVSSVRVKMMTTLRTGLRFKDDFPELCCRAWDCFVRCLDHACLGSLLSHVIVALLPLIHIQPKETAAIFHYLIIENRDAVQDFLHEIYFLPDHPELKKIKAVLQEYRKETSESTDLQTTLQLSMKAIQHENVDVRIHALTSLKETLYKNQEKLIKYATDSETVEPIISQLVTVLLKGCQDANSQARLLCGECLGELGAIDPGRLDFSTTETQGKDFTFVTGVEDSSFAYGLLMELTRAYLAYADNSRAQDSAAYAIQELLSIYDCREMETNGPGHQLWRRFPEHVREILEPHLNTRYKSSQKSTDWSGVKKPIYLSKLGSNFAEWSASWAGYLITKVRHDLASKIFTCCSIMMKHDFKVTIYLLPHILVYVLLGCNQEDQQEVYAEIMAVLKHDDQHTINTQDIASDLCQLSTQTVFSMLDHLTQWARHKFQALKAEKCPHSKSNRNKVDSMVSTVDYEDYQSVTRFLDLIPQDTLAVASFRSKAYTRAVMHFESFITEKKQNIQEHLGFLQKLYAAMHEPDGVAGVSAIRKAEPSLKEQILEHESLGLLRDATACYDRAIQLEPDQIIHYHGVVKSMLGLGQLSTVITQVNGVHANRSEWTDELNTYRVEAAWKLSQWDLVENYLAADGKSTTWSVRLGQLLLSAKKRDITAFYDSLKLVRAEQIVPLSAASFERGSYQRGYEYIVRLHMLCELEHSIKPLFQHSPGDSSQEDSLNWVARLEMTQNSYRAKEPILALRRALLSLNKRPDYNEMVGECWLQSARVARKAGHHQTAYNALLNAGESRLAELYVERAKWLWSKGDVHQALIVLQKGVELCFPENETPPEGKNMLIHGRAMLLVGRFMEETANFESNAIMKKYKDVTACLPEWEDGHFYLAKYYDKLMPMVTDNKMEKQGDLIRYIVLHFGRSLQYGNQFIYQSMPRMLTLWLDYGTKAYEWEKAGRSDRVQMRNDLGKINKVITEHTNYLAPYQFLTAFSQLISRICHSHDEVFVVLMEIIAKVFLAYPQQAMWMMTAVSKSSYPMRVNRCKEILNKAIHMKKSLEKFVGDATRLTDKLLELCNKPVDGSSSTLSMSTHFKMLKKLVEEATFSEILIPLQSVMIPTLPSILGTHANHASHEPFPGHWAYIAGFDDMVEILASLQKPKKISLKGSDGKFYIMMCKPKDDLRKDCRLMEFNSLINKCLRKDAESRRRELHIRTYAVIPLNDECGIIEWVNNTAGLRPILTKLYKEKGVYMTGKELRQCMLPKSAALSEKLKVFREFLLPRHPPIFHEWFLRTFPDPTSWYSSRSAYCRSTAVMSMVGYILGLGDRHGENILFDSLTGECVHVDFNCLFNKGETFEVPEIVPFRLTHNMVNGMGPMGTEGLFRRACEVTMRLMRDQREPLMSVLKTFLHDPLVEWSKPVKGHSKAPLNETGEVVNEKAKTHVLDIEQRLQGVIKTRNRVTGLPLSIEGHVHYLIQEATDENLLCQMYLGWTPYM
pKi: −log10 of the molar value.
Assay metric: pKi

-- ask Give the reported pKi for this compound. CC(C)S(=O)(=O)c1ccc(-c2cnc(N)c(-c3nnc(-c4ccc(C#N)cc4)o3)n2)cc1
-- reply 7.00 to 8.00

-- ask Report pKi for CC(C)(C)OC(=O)N1CCCN(C(=O)c2ccc(-c3cnc(N)c(-c4nnc(-c5ccccc5)o4)n3)cc2)CC1
-- reply ≥ 8.00

-- ask Using the record for Nc1ncc(-c2ccc(C(=O)CN3CCC(O)CC3)cc2)nc1C(=O)Nc1ccccc1 , state its measured pKi.
-- reply 7.00 to 8.00

-- ask Fill in reported pKi for this entry: NC(=O)c1cccc(-c2cnc(N)c(C(=O)Nc3ccccc3)n2)c1
-- reply 5.30 to 7.00

-- ask Specify reported pKi for the compound shown: CC(CCO)S(=O)(=O)c1ccc(-c2cnc(N)c(-c3nnc(-c4ccccc4F)o3)n2)cc1 (stereo not shown)
-- reply ≥ 8.00

-- ask Could you please provide reported pKi for Nc1ncc(-c2ccc(C(=O)NCCO)cc2)nc1-c1nc2ccccc2[nH]1 ? Thanks!
-- reply 7.00 to 8.00

-- ask Please give measured pKi of the following entry: CC(C)S(=O)(=O)c1ccc(-c2cnc(N)c(-c3nnc(NC(=O)C(C)(C)N)o3)n2)cc1
-- reply 5.30 to 7.00

-- ask Determine its reported pKi: CCCS(=O)(=O)c1ccc(-c2cnc(N)c(-c3nnc(-c4ccc(CNC)cc4)o3)n2)cc1
-- reply ≥ 8.00

-- ask Give recorded pKi. Cc1cccc2nc(-c3nc(-c4ccc(S(C)(=O)=O)cc4)cnc3N)[nH]c12
-- reply 7.00 to 8.00

-- ask State, in one line, measured pKi of Nc1ncc(-c2ccc(C(=O)N3CCCNCC3)cc2)nc1-c1cc(-c2ccccc2)no1
-- reply ≥ 8.00

-- ask Indicate the recorded pKi value for this compound: Nc1ncc(-c2ccc(S(=O)(=O)C3CCNCC3)cc2)nc1-c1nnc(-c2ccccc2)o1
-- reply ≥ 8.00

-- ask Kindly indicate its recorded pKi. Item: CN(C)C(=O)c1ccc(-c2cnc(N)c(-c3nnc(Nc4cccnc4)o3)n2)cc1
-- reply 7.00 to 8.00

-- ask Give me measured pKi, please, for this compound: COc1ccccc1Nc1nnc(-c2nc(-c3ccc(C(=O)N(C)C)cc3)cnc2N)o1
-- reply 7.00 to 8.00

-- ask Check the records and state pKi for CN(C)C(=O)c1ccc(-c2cnc(N)c(-c3nnc(-c4ccccc4)s3)n2)c(C#N)c1
-- reply ≥ 8.00

-- ask Respond only with pKi recorded for Nc1ncc(-c2ccccc2O)nc1-c1nnc(-c2ccccc2)o1
-- reply 7.00 to 8.00

-- ask // Input: CC(C)S(=O)(=O)c1ccc(-c2cnc(N)c(-c3cc(-c4ccc(CNCCO)cc4)no3)n2)cc1 . Output its pKi only.
-- reply ≥ 8.00

-- ask Consider the compound Cc1cccc(-c2nnc(-c3nc(-c4ccc(C(=O)N(C)C)cc4)cnc3N)o2)c1 . State its measured pKi.
-- reply 7.00 to 8.00

-- ask Note down pKi recorded for CN(C)C(=O)c1ccc(-c2cnc(N)c(-c3nnc(N(C)c4ccccc4)o3)n2)cc1
-- reply 5.30 to 7.00

-- ask Identify pKi associated with the compound CN(C)Cc1ccccc1-c1cnc(N)c(-c2nnc(-c3ccccc3)o2)n1
-- reply 5.30 to 7.00

-- ask Please give measured pKi of the following entry: CC(C)S(=O)(=O)c1ccc(-c2cnc(N)c(-c3nnc(-c4ccc(CNCCF)cc4F)o3)n2)cc1
-- reply ≥ 8.00

-- ask Read off the recorded pKi for Nc1ncc(-c2ccc(C(=O)N3CCNCC3)cc2)nc1C(=O)Nc1ccccc1
-- reply 7.00 to 8.00

-- ask Item Nc1ncc(-c2cncnc2)nc1C(=O)Nc1ccccc1 : provide pKi
-- reply 5.30 to 7.00

-- ask Provide measured pKi value, entry: CCc1ccccc1-c1cnc(N)c(-c2nnc(-c3ccccc3)o2)n1
-- reply 5.30 to 7.00

-- ask State its pKi: CN(C)C(=O)c1ccc(-c2cnc(N)c(-c3nnc(-c4cccs4)o3)n2)cc1
-- reply ≥ 8.00

-- ask State its pKi: CS(=O)(=O)c1ccccc1-c1cnc(N)c(-c2nnc(-c3ccccc3)o2)n1
-- reply 5.30 to 7.00

-- ask Provide one value: measured pKi of COC(=O)c1ccccc1-c1cnc(N)c(-c2nnc(-c3ccccc3)o2)n1
-- reply 5.30 to 7.00

-- ask For CS(=O)(=O)c1cccc(-c2cnc(N)c(C(=O)Nc3ccccc3)n2)c1 , write its pKi.
-- reply 5.30 to 7.00

-- ask Annotate the compound CN(C)C(=O)c1ccc(-c2cnc(N)c(-c3nnc(-c4ccc(CN)cc4)o3)n2)cc1 with its measured pKi.
-- reply ≥ 8.00

-- ask Identify pKi associated with the compound CC(C)S(=O)(=O)c1ccc(-c2cnc(N)c(-c3nnc(-c4ccc(CO)cc4)o3)n2)cc1
-- reply ≥ 8.00

-- ask Item CNCc1ccc(-c2nnc(-c3nc(-c4ccc(S(=O)(=O)C(C)C)cc4)cnc3N)o2)c(Cl)c1 : provide pKi
-- reply ≥ 8.00

-- ask Note pKi for the compound shown: CN(C)C(=O)c1ccc(-c2cnc(N)c(-c3nnc(-c4ccc(CO)cc4)o3)n2)cc1
-- reply ≥ 8.00

-- ask Answer with the recorded pKi of CNCc1ccc(-c2cc(-c3nc(-c4ccc(S(=O)(=O)C(C)C)cc4)cnc3N)on2)c(F)c1 only.
-- reply ≥ 8.00

-- ask Determine its reported pKi: CN(C)C(=O)c1ccc(-c2cnc(N)c(-c3nnc(Nc4ccccc4Cl)o3)n2)cc1
-- reply 7.00 to 8.00

-- ask In one line, give reported pKi of the entry CC(C)Oc1ccccc1-c1nnc(-c2nc(-c3ccc(C(=O)N(C)C)cc3)cnc2N)o1 .
-- reply ≥ 8.00

Source listed as patent US10479784B2.
